Molecular target: KCNT1 (KNa1.1, Slack) (Homo sapiens)
Sequence (Q5JUK3 1-1230): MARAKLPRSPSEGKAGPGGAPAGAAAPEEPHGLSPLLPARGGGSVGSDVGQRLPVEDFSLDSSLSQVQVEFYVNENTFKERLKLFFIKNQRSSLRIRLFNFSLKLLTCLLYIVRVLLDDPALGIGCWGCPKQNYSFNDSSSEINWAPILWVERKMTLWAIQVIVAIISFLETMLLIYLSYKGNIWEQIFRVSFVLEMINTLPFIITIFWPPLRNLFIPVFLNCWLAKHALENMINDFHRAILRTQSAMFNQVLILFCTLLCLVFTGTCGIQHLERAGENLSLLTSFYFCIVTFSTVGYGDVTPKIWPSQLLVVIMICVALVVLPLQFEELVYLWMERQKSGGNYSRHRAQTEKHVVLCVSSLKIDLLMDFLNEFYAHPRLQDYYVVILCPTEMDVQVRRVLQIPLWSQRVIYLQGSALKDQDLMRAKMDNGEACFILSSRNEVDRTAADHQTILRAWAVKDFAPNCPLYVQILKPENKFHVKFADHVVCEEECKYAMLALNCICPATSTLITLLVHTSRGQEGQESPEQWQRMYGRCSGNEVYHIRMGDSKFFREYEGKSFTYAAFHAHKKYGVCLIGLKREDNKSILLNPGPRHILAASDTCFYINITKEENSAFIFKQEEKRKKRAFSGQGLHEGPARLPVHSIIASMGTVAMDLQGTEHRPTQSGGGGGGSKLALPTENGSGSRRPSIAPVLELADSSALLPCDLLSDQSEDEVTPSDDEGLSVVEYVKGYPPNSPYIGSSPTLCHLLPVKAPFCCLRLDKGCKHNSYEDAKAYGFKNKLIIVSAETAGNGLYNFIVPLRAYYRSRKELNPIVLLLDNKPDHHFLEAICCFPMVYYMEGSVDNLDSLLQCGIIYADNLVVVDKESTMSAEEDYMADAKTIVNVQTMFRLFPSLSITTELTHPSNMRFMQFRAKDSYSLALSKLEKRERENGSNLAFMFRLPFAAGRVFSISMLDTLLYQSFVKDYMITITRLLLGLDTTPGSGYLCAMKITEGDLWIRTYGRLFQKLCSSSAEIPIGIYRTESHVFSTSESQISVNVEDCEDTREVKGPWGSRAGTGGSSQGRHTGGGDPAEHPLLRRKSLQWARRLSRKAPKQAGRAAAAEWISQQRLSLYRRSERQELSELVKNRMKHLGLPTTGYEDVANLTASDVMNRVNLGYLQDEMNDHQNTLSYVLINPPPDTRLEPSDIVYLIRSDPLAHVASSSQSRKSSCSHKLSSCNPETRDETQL
Assay: KCNT1 patch clamp assay (SyncroPatch 384PE, tetracycline inducible HEK-TREX cell line)
Settings: WT KCNT1, HEK-TREX cells, perforated patch, step from -80 mV to 0 mV, room temperature; read-out: WT (KCNT1 inhibition IC50)
Protocol: Inhibition of KCNT1 (KNa1.1, Slack) was evaluated using a tetracycline inducible cell line (HEK-TREX). Currents were recorded using the SyncroPatch 384PE automated, patch clamp system. […] Current was recorded in perforated patch mode (10 μM escin) from a population of cells. […] Currents were recorded at room temperature. […] Mean current was measured during the step to 0 mV. […] The average mean current from 3 sweeps was calculated and the percent inhibition of each compound was calculated. […]
pIC50: −log10 of the molar value.
property measured: pIC50

{"columns": ["compound", "system", "pIC50"],
 "data": [
  ["CC(NC(=O)c1cc(C(F)(F)F)nn1C)c1cc(-c2ccc(C(N)=O)cc2)nn1C (stereo not shown)", "KCNT1 (KNa1.1, Slack) (Homo sapiens)", "≤ 4.70"],
  ["CCOc1cc(-c2cc(CNC(=O)c3cc(C(F)(F)F)nn3C)n(C)n2)ccn1", "KCNT1 (KNa1.1, Slack) (Homo sapiens)", "≥ 6.00"],
  ["CC(NC(=O)c1cc(C(F)(F)F)nn1C)c1cc(N(C)C2CCCC2)nn1C (stereo not shown)", "KCNT1 (KNa1.1, Slack) (Homo sapiens)", "4.70 to 6.00"]
]}

Input `Cn1nc(-c2ccnc(C(F)(F)F)c2)cc1CNC(=O)c1ccccc1` . Output pIC50: ≥ 6.00

Input `Cc1c(-c2ccnc(C(F)(F)F)c2)nn(C)c1CNC(=O)c1cc(C(F)(F)F)nn1C` . Output pIC50: ≥ 6.00

Input `Cn1nc(C(F)(F)F)cc1C(=O)NC(C)(C)c1cc(-c2ccnc(C(F)(F)F)c2)nn1C` . Output pIC50: ≥ 6.00

Input CC(C)Oc1cc(C(C)NC(=O)c2cc(C(F)(F)F)nn2C)n(C)n1 (stereo not shown) . Output pIC50: ≤ 4.70

Input CC(NC(=O)c1cc(C(F)(F)F)nn1C)c1cc(Cc2ccccc2)nn1C (stereo not shown) . Output pIC50: 4.70 to 6.00

Input `Cn1nc(-c2ccnc(C(F)(F)F)c2)cc1CNC(=O)c1cc(C(F)(F)F)nn1C` . Output pIC50: ≥ 6.00

Input CC(NC(=O)c1cc(C(F)(F)F)nn1C)c1cc(-c2ccc(CO)nc2)nn1C (stereo not shown) . Output pIC50: ≤ 4.70
